System: Enterobacter cloacae
Experiment: Antimicrobial activity against Enterobacter cloacae GC 2071 expressing Imi1 and AmpC in presence of 4 ug/mL piperacillin
Assay type: functional
experimental_endpoint: MIC (µg/mL)
Response body: numeric value in µg/mL, unit text excluded.

## Task Return MIC for the following molecule: `Cc1ccc2c(c1)sc1nc(/C=C3/C(=O)N4C(C(=O)[O-])=CS[C@H]34)cn12.[Na+]`
## Result 8

## Task Kindly indicate its recorded MIC. Item: `Cc1cccc2sc3nc(/C=C4/C(=O)N5C(C(=O)[O-])=CS[C@H]45)cn3c12.[Na+]`
## Result 16

## Task Identify measured MIC associated with `COc1ccc2c(c1)sc1nc(/C=C3/C(=O)N4C(C(=O)[O-])=CS[C@H]34)cn12.[Na+]`
## Result 16

## Task For `O=C([O-])C1=CS[C@@H]2/C(=C\c3cn4c(n3)sc3cc(Cl)ccc34)C(=O)N12.[Na+]` , write its MIC.
## Result 8

## Task Write down MIC measured for item `O=C([O-])C1=CS[C@@H]2/C(=C\c3cn4c(n3)sc3ccccc34)C(=O)N12.[Na+]`
## Result 2

## Task Identify measured MIC corresponding to `O=C([O-])C1=CS[C@@H]2/C(=C\c3cn4c(n3)sc3cc(F)ccc34)C(=O)N12.[Na+]`
## Result 8

## Task Please indicate MIC recorded for `O=C([O-])C1=CS[C@@H]2/C(=C\c3cn4c5c(sc4n3)CCC5)C(=O)N12.[Na+]`
## Result 4

----------
Test system: Staphylococcus aureus
Test: Antimicrobial activity against Staphylococcus aureus GC 2216 in presence of 4 ug/mL piperacillin
Format: functional
experimental_endpoint: MIC

## Task Report MIC for `Cc1ccc2c(c1)sc1nc(/C=C3/C(=O)N4C(C(=O)[O-])=CS[C@H]34)cn12.[Na+]`
## Result < 0.06 µg/mL

## Task Read off the recorded MIC for `Cc1cccc2sc3nc(/C=C4/C(=O)N5C(C(=O)[O-])=CS[C@H]45)cn3c12.[Na+]`
## Result < 0.06 µg/mL

## Task Given C[C@]1(Cn2ccnn2)[C@H](C(=O)[O-])N2C(=O)C[C@H]2S1(=O)=O.[Na+] [TAZOBACTAM SODIUM] , respond with its MIC.
## Result 64 µg/mL

## Task Output measured MIC for this item: `O=C([O-])C1=CS[C@@H]2/C(=C\c3cn4c(n3)sc3cc(Cl)ccc34)C(=O)N12.[Na+]`
## Result < 0.06 µg/mL

## Task Give me measured MIC, please, for this molecule: `O=C([O-])C1=CS[C@@H]2/C(=C\c3cn4c(n3)sc3cc(F)ccc34)C(=O)N12.[Na+]`
## Result < 0.06 µg/mL

## Task Please list MIC recorded for the molecule `COc1ccc2c(c1)sc1nc(/C=C3/C(=O)N4C(C(=O)[O-])=CS[C@H]34)cn12.[Na+]`
## Result < 0.06 µg/mL

## Task Indicate the recorded MIC value for this molecule: `O=C([O-])C1=CS[C@@H]2/C(=C\c3cn4c5c(sc4n3)CCC5)C(=O)N12.[Na+]`
## Result 2 µg/mL

## Task Report MIC for `O=C([O-])C1=CS[C@@H]2/C(=C\c3cn4c(n3)sc3ccccc34)C(=O)N12.[Na+]`
## Result < 0.06 µg/mL

----------
Test system: Serratia marcescens
Experiment: Antimicrobial activity against Serratia marcescens GC 1781 expressing Sme1 and AmpC in presence of 4 ug/mL piperacillin
Type: functional
experimental_endpoint: MIC (µg/mL)
Quick note: give the figure in µg/mL, leave out the unit.

## Task In one line, give reported MIC of the entry `Cc1ccc2c(c1)sc1nc(/C=C3/C(=O)N4C(C(=O)[O-])=CS[C@H]34)cn12.[Na+]` .
## Result 0.5

## Task Read the entry `O=C([O-])C1=CS[C@@H]2/C(=C\c3cn4c(n3)sc3ccccc34)C(=O)N12.[Na+]` and write its reported MIC.
## Result 0.5

## Task Look up MIC of `Cc1cccc2sc3nc(/C=C4/C(=O)N5C(C(=O)[O-])=CS[C@H]45)cn3c12.[Na+]` and report it.
## Result 4

## Task Give the reported MIC for this compound. `COc1ccc2c(c1)sc1nc(/C=C3/C(=O)N4C(C(=O)[O-])=CS[C@H]34)cn12.[Na+]`
## Result 2

----------
Test system: Enterobacter cloacae
Experiment: Antimicrobial activity against Enterobacter cloacae GC 1475 expressing P99 in presence of 4 ug/mL piperacillin
Assay type: functional
experimental_endpoint: MIC

## Task For the compound C[C@]1(Cn2ccnn2)[C@H](C(=O)[O-])N2C(=O)C[C@H]2S1(=O)=O.[Na+] [TAZOBACTAM SODIUM] , give its reported MIC.
## Result > 64 µg/mL

## Task Please indicate MIC recorded for `Cc1ccc2c(c1)sc1nc(/C=C3/C(=O)N4C(C(=O)[O-])=CS[C@H]34)cn12.[Na+]`
## Result 8 µg/mL

## Task State its MIC: `COc1ccc2c(c1)sc1nc(/C=C3/C(=O)N4C(C(=O)[O-])=CS[C@H]34)cn12.[Na+]`
## Result 16 µg/mL

## Task Give MIC for the following compound: `O=C([O-])C1=CS[C@@H]2/C(=C\c3cn4c(n3)sc3cc(F)ccc34)C(=O)N12.[Na+]`
## Result 16 µg/mL

----------
Assay: Inhibition of Enterobacter cloacae class C beta lactamase GC1
experimental_endpoint: pIC50
To interpret pIC50, take it as minus log10 of a concentration measured in moles per litre.

## Task Note pIC50 for the compound shown: `O=C([O-])C1=CS[C@@H]2/C(=C\c3cn4c5c(sc4n3)CCC5)C(=O)N12.[Na+]`
## Result 8.42

----------
Test system: Escherichia coli
Test: Antimicrobial activity against Escherichia coli GC 2252 expressing IRT2 in presence of 4 ug/mL piperacillin
Type: functional
experimental_endpoint: MIC (µg/mL)
Answer with a number only, understood to be in µg/mL.

## Task Please list MIC recorded for the compound `O=C([O-])C1=CS[C@@H]2/C(=C\c3cn4c(n3)sc3ccccc34)C(=O)N12.[Na+]`
## Result 8

## Task Answer with the recorded MIC for the compound listed here: `O=C([O-])C1=CS[C@@H]2/C(=C\c3cn4c5c(sc4n3)CCC5)C(=O)N12.[Na+]`
## Result 8

## Task Give the value of MIC reported for the following: `Cc1ccc2c(c1)sc1nc(/C=C3/C(=O)N4C(C(=O)[O-])=CS[C@H]34)cn12.[Na+]`
## Result 16

## Task Report MIC, nothing else, for this compound: `COc1ccc2c(c1)sc1nc(/C=C3/C(=O)N4C(C(=O)[O-])=CS[C@H]34)cn12.[Na+]`
## Result 8

----------
System: Enterobacter cloacae
Experiment: Antimicrobial activity against Enterobacter cloacae GC 1475 expressing P99 in presence of 4 ug/mL piperacillin
Format: functional
Would you mind telling me the reported MIC of each entry?
Dear colleague, please return just the value in µg/mL, with no unit written.

## Task Give the reported MIC for this compound. `O=C([O-])C1=CS[C@@H]2/C(=C\c3cn4c5c(sc4n3)CCC5)C(=O)N12.[Na+]`
## Result 16

## Task For the compound `Cc1cccc2sc3nc(/C=C4/C(=O)N5C(C(=O)[O-])=CS[C@H]45)cn3c12.[Na+]` , report MIC.
## Result 16

## Task Report measured MIC; entry is `O=C([O-])C1=CS[C@@H]2/C(=C\c3cn4c(n3)sc3cc(Cl)ccc34)C(=O)N12.[Na+]`
## Result 8

## Task Answer with reported MIC of `O=C([O-])C1=CS[C@@H]2/C(=C\c3cn4c(n3)sc3ccccc34)C(=O)N12.[Na+]`
## Result 8

----------
Field: pIC50. Provide a value for each of the molecules that follow.
Target: Metallo-beta-lactamase type 2 (Bacteroides fragilis)
Sequence (P25910 whole entry): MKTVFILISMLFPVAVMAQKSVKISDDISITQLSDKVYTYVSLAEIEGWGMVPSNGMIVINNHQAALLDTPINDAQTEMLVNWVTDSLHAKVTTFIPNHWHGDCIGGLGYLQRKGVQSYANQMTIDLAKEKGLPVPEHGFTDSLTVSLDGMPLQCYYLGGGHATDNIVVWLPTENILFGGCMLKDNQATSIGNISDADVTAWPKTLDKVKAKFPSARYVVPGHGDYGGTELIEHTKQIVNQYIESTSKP
Experiment: Inhibition of Bacteroides fragilis CcrA
In textbook form, pIC50 equals minus log to base ten of the concentration in mol/L.

## Task Provide measured pIC50 value, entry: `O=C([O-])C1=CS[C@@H]2/C(=C\c3cn4c(n3)sc3cc(Cl)ccc34)C(=O)N12.[Na+]`
## Result 7.13

## Task Specify reported pIC50 for the molecule shown: `Cc1cccc2sc3nc(/C=C4/C(=O)N5C(C(=O)[O-])=CS[C@H]45)cn3c12.[Na+]`
## Result 6.43

## Task Input `Cc1ccc2c(c1)sc1nc(/C=C3/C(=O)N4C(C(=O)[O-])=CS[C@H]34)cn12.[Na+]` , output reported pIC50.
## Result 6.99

----------
Molecular target: Beta-lactamase SHV-1 (Escherichia coli, UniProt P0AD63)
Sequence (P0AD63 whole entry): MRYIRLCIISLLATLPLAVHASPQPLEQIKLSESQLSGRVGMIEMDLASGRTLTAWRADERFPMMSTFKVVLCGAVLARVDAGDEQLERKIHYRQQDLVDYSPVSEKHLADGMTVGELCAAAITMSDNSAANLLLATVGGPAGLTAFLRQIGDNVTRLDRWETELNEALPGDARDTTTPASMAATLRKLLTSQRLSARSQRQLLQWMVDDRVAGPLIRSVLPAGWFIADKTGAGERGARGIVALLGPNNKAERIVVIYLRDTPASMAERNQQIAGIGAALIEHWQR
Assay: Inhibition of Escherichia coli SHV1
experimental_endpoint: IC50 (nM)
Hi! Could you send only the number? It should be in nM, unit omitted.

## Task Look up IC50 of `O=C([O-])C1=CS[C@@H]2/C(=C\c3cn4c5c(sc4n3)CCC5)C(=O)N12.[Na+]` and report it.
## Result 12
